# Test system: rats with permanent cerebral ischemia injury
# Type: in vivo, SD rats
# MEASUREMENT_PARAMETERS: permanent cerebral ischemia model rats; 40 mg/kg intravenously 30 min before insertion of thread and 12 h after embolism; scored 24 h after the embolism; Longa grade 0-4
Quick reference: Average score of neurological impairment of the listed items.
Keep the answer to the number alone.

The cases that follow already have their Average score of neurological impairment on record.
INSERT INTO assay_data (molecule, readout_kind, meas_value) VALUES
  ('CC(C)c1cc(-c2cc(C(C)C)c(OC(=O)CCC(=O)O)c(C(C)C)c2)cc(C(C)C)c1O', 'Average score of neurological impairment', 2.4),
  ('CC(C)c1cc(-c2cc(C(C)C)c(OC(=O)C(N)C(C)C)c(C(C)C)c2)cc(C(C)C)c1O (stereo not drawn)', 'Average score of neurological impairment', 2.3),
  ('CC(=O)Oc1c(C(C)C)cc(-c2cc(C(C)C)c(OC(C)=O)c(C(C)C)c2)cc1C(C)C', 'Average score of neurological impairment', 2.5),
  ('CC(=O)Oc1c(C(C)C)cc(-c2cc(C(C)C)c(O)c(C(C)C)c2)cc1C(C)C', 'Average score of neurological impairment', 2.4),
  ('CCCc1cc(-c2cc(CCC)c(O)c(C(C)C)c2)cc(C(C)C)c1O', 'Average score of neurological impairment', 2.2);

Quick check: Average score of neurological impairment of CC(C)c1cc(-c2cc(C(C)C)c(C(=O)O)c(C(C)C)c2)cc(C(C)C)c1O ?
2.7

Quick check: Average score of neurological impairment of CCCc1cc(-c2cc(CCC)c(O)c(CCC)c2)cc(CCC)c1O ?
2.3

Quick check: Average score of neurological impairment of CC(=O)OC(C)Oc1c(C(C)C)cc(-c2cc(C(C)C)c(O)c(C(C)C)c2)cc1C(C)C (stereo not drawn) ?
2.6

Quick check: Average score of neurological impairment of CC(C)c1cc(-c2cc(C(C)C)c(OC=O)c(C(C)C)c2)cc(C(C)C)c1O ?
2.4

###

Quick reference: Fas average gray scale of the listed items.
# Tested on: Fas
# EXPERIMENT: Fas determination (immunohistochemical method), cerebral ischemic reperfusion MCAO model
# Type: in vivo, SD rats
# MEASUREMENT_PARAMETERS: ischemic reperfusion MCAO rats; 40 mg/kg intravenously; brain sections 24 h after reperfusion; gray scale inversely proportional to positive expression
Keep the answer to the number alone.

The cases that follow already have their Fas average gray scale on record.
INSERT INTO measurements (compound, readout_kind, meas_value) VALUES
  ('CC(=O)Oc1c(C(C)C)cc(-c2cc(C(C)C)c(OC(C)=O)c(C(C)C)c2)cc1C(C)C', 'Fas average gray scale', 148.36),
  ('CC(C)c1cc(-c2cc(C(C)C)c(OC=O)c(C(C)C)c2)cc(C(C)C)c1O', 'Fas average gray scale', 145.06),
  ('CCCc1cc(-c2cc(CCC)c(O)c(C(C)C)c2)cc(C(C)C)c1O', 'Fas average gray scale', 155.33),
  ('CCCc1cc(-c2cc(CCC)c(O)c(CCC)c2)cc(CCC)c1O', 'Fas average gray scale', 157.26);

Quick check: Fas average gray scale of CC(C)c1cc(-c2cc(C(C)C)c(C(=O)O)c(C(C)C)c2)cc(C(C)C)c1O ?
148.82

Quick check: Fas average gray scale of CC(C)c1cc(-c2cc(C(C)C)c(OC(=O)CCC(=O)O)c(C(C)C)c2)cc(C(C)C)c1O ?
148.02

Quick check: Fas average gray scale of CC(=O)OC(C)Oc1c(C(C)C)cc(-c2cc(C(C)C)c(O)c(C(C)C)c2)cc1C(C)C (centres unmarked) ?
144.26

Quick check: Fas average gray scale of CC(C)c1cc(-c2cc(C(C)C)c(OC(=O)C(N)C(C)C)c(C(C)C)c2)cc(C(C)C)c1O (centres unmarked) ?
152.12
